# SUBJECT OF TEST: C-C motif chemokine 5 (Homo sapiens) (UniProt P13501)
# Sequence (whole entry): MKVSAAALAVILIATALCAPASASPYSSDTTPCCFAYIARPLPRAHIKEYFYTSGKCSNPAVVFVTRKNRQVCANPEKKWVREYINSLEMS
# ASSAY DETAILS: Binding affinity to human CCL5 at 100 uM by glycan microarray analysis
ASSAY READOUT: Activity (%)

Please review the entries below; each comes with its answer.
{"columns": ["MOLECULE SMILES", "Activity, %"],
 "data": [
  ["NCCOCCO[C@@H]1O[C@@H](C(=O)O)[C@@H](O[C@@H]2O[C@@H](C(=O)O)[C@@H](OS(=O)(=O)O)[C@H](O)[C@H]2O)[C@H](O)[C@H]1O", 38],
  ["NCCOCCO[C@@H]1O[C@@H](C(=O)O)[C@@H](O[C@@H]2O[C@@H](C(=O)O)[C@@H](O)[C@H](O)[C@H]2O)[C@H](O)[C@H]1O", 2],
  ["NCCOCCO[C@@H]1O[C@@H](C(=O)O)[C@@H](OS(=O)(=O)O)[C@H](O)[C@H]1OS(=O)(=O)O", 75]
]}

a. NCCOCCO[C@@H]1O[C@@H](C(=O)O)[C@@H](O[C@@H]2O[C@@H](C(=O)O)[C@@H](O[C@@H]3O[C@@H](C(=O)O)[C@@H](O)[C@H](O)[C@H]3O)[C@H](O)[C@H]2O)[C@H](O)[C@H]1O
b. NCCOCCO[C@@H]1O[C@@H](C(=O)O)[C@@H](O[C@@H]2O[C@@H](C(=O)O)[C@@H](O[C@@H]3O[C@@H](C(=O)O)[C@@H](OS(=O)(=O)O)[C@H](O)[C@H]3O)[C@H](O)[C@H]2O)[C@H](O)[C@H]1O
c. NCCOCCO[C@@H]1O[C@@H](C(=O)O)[C@@H](O)[C@H](O)[C@H]1O
d. NCCOCCO[C@@H]1O[C@@H](C(=O)O)[C@@H](O[C@@H]2O[C@@H](C(=O)O)[C@@H](O[C@@H]3O[C@@H](C(=O)O)[C@@H](OS(=O)(=O)O)[C@H](O)[C@H]3OS(=O)(=O)O)[C@H](O)[C@H]2OS(=O)(=O)O)[C@H](O)[C@H]1OS(=O)(=O)O
e. NCCOCCO[C@@H]1O[C@@H](C(=O)O)[C@@H](OS(=O)(=O)O)[C@H](O)[C@H]1O
Please list the entries, largest Activity first. I would appreciate it if you listed the labels in the requested order.
d, b, e, c, a
(d: 80%, b: 30%, e: 15%, c: 2%, a: 1%)
